Catalogue of IC50 readings, one per entry.
- System: MV-4-11
- methodDescription: CDK9 cell activity assay, cell growth inhibition (CellTiter-Glo, 72 hours)
- Format: cell-based
- conditionContext: Homo sapiens, MV4-11
measurementName: IC50

[
  {
    "molSmiles": "Fc1cnc2nc1-c1cccc(c1)NCCCCNc1cccc(c1)N2",
    "systemTested": "MV-4-11",
    "measurementName": "IC50",
    "experimentalValue": "250 to 1000 nM"
  },
  {
    "molSmiles": "Clc1cnc2nc1OCCCCCNCc1cccc(c1)N2",
    "systemTested": "MV-4-11",
    "measurementName": "IC50",
    "experimentalValue": "< 250 nM"
  },
  {
    "molSmiles": "Clc1cnc2nc1NCCCCCNCc1cccc(c1)N2",
    "systemTested": "MV-4-11",
    "measurementName": "IC50",
    "experimentalValue": "< 250 nM"
  },
  {
    "molSmiles": "Cc1ccc2cc1-c1nc(ncc1Cl)Nc1cnn(c1)CCNCCN2",
    "systemTested": "MV-4-11",
    "measurementName": "IC50",
    "experimentalValue": "250 to 1000 nM"
  },
  {
    "molSmiles": "COc1ccc2cc1-c1nc(ncc1F)Nc1cccc(c1)NC/C=C\\CN2",
    "systemTested": "MV-4-11",
    "measurementName": "IC50",
    "experimentalValue": "250 to 1000 nM"
  }
]
